Each entry below carries its recorded IC50.
# Test system: MDA-MB-468 spheroids with HUVEC/MSC, viability
# protocol_description: Anticancer human tumor MDA-MB-468 cell line growth inhibition [PI3K];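 note: spheroids exposed to agents for seven days before readout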
# condition_description: curve of first compound; second compound 3.16 µM
# Description: Combinatorial screen of targeted agents with the PI3K inhibitors inavolisib, alpelisib, duvelisib, and copanlisib in multi-cell type tumor spheroids A high-throughput screen of multi-cell type tumor spheroids was designed to identify active combinations of targeted small molecules and PI3K pathway inhibitors. […] Compounds. […] If the clinical Cmax for an agent had not been determined, the highest concentration tested was 10 microM. […]
endpoint: IC50 (µM)

CCCS(=O)(=O)Nc1ccc(F)c(C(=O)c2c[nH]c3ncc(-c4ccc(Cl)cc4)cc23)c1F + Cc1nc(NC(=O)N2CCCC2C(N)=O)sc1-c1ccnc(C(C)(C)C(F)(F)F)c1
1.78
Cn1cnc2c(F)c(Nc3ccc(Br)cc3Cl)c(C(=O)NOCCO)cc21 + CC(Nc1ncnc2nc[nH]c12)c1cc2cccc(Cl)c2c(=O)n1-c1ccccc1
1.96
CC1(C)CCC(CN2CCN(c3ccc(C(=O)NS(=O)(=O)c4ccc(NCC5CCOCC5)c([N+](=O)[O-])c4)c(Oc4cnc5[nH]ccc5c4)c3)CC2)=C(c2ccc(Cl)cc2)C1 + Cc1nc(NC(=O)N2CCCC2C(N)=O)sc1-c1ccnc(C(C)(C)C(F)(F)F)c1
2.12
CC(C)NCC(C(=O)N1CCN(c2ncnc3c2C(C)CC3O)CC1)c1ccc(Cl)cc1 (stereo not given) + CC(Nc1ncnc2nc[nH]c12)c1cc2cccc(Cl)c2c(=O)n1-c1ccccc1
0.26

----------
# Tested on: MDA-MB-468 spheroids with HUVEC/MSC, viability
# protocol_description: Anticancer human tumor MDA-MB-468 cell line growth inhibition [PI3K];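 note: spheroids exposed to agents for seven days before readout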;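 for viability, T/C: 100% = DMSO vehicle control viability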
# condition_description: second compound 10 µM; first compound 0.0316 µM; stronger effect = lower value
# Text: Combinatorial screen of targeted agents with the PI3K inhibitors inavolisib, alpelisib, duvelisib, and copanlisib in multi-cell type tumor spheroids A high-throughput screen of multi-cell type tumor spheroids was designed to identify active combinations of targeted small molecules and PI3K pathway inhibitors. […] Compounds. […] If the clinical Cmax for an agent had not been determined, the highest concentration tested was 10 microM. […]
Each entry below carries its recorded viability, T/C.
endpoint: viability, T/C (%)

Cn1nccc1Nc1nccc(-c2ccn(C(CO)c3ccc(Cl)c(F)c3)c(=O)c2)n1 (stereo not given) + CC(Nc1ncnc2nc[nH]c12)c1cc2cccc(Cl)c2c(=O)n1-c1ccccc1
33.8
CC1(C)CCC(CN2CCN(c3ccc(C(=O)NS(=O)(=O)c4ccc(NCC5CCOCC5)c([N+](=O)[O-])c4)c(Oc4cnc5[nH]ccc5c4)c3)CC2)=C(c2ccc(Cl)cc2)C1 + Cc1nc(NC(=O)N2CCCC2C(N)=O)sc1-c1ccnc(C(C)(C)C(F)(F)F)c1
35.2
Cn1ncc(Cl)c1-c1cc(C(=O)NC(CN)Cc2cccc(F)c2)sc1Cl (stereo not given) + Cc1nc(NC(=O)N2CCCC2C(N)=O)sc1-c1ccnc(C(C)(C)C(F)(F)F)c1
38.3
CCN1CCN(Cc2ccc(Nc3ncc(F)c(-c4cc(F)c5nc(C)n(C(C)C)c5c4)n3)nc2)CC1 + Cc1nc(NC(=O)N2CCCC2C(N)=O)sc1-c1ccnc(C(C)(C)C(F)(F)F)c1
29.8
Cn1nccc1Nc1nccc(-c2ccn(C(CO)c3ccc(Cl)c(F)c3)c(=O)c2)n1 (stereo not given) + Cc1nc(NC(=O)N2CCCC2C(N)=O)sc1-c1ccnc(C(C)(C)C(F)(F)F)c1
39.6
Cn1ncc(Cl)c1-c1cc(C(=O)NC(CN)Cc2cccc(F)c2)sc1Cl (stereo not given) + CC(Nc1ncnc2nc[nH]c12)c1cc2cccc(Cl)c2c(=O)n1-c1ccccc1
40.4
CC1(C)CCC(CN2CCN(c3ccc(C(=O)NS(=O)(=O)c4ccc(NCC5CCOCC5)c([N+](=O)[O-])c4)c(Oc4cnc5[nH]ccc5c4)c3)CC2)=C(c2ccc(Cl)cc2)C1 + CC(Nc1ncnc2nc[nH]c12)c1cc2cccc(Cl)c2c(=O)n1-c1ccccc1
38.4
C[C@@H](NC(=O)c1ncnc(N)c1Cl)c1ncc(C(=O)Nc2cc(C(F)(F)F)c(Cl)cn2)s1 + CC(Nc1ncnc2nc[nH]c12)c1cc2cccc(Cl)c2c(=O)n1-c1ccccc1
42.3
C#Cc1c(F)ccc2cc(O)cc(-c3ncc4c(N5CC6CCC(C5)N6)nc(OCC56CCCN5CC(F)C6)nc4c3F)c12 (stereo not given) + Cc1nc(NC(=O)N2CCCC2C(N)=O)sc1-c1ccnc(C(C)(C)C(F)(F)F)c1
42.2
Cn1ncnc1[C@H]1c2n[nH]c(=O)c3cc(F)cc(c23)N[C@@H]1c1ccc(F)cc1 + Cc1nc(NC(=O)N2CCCC2C(N)=O)sc1-c1ccnc(C(C)(C)C(F)(F)F)c1
20.3
